- testTarget: EGFR (human) (UniProt P00533)
- Sequence (P00533 whole entry, looked up): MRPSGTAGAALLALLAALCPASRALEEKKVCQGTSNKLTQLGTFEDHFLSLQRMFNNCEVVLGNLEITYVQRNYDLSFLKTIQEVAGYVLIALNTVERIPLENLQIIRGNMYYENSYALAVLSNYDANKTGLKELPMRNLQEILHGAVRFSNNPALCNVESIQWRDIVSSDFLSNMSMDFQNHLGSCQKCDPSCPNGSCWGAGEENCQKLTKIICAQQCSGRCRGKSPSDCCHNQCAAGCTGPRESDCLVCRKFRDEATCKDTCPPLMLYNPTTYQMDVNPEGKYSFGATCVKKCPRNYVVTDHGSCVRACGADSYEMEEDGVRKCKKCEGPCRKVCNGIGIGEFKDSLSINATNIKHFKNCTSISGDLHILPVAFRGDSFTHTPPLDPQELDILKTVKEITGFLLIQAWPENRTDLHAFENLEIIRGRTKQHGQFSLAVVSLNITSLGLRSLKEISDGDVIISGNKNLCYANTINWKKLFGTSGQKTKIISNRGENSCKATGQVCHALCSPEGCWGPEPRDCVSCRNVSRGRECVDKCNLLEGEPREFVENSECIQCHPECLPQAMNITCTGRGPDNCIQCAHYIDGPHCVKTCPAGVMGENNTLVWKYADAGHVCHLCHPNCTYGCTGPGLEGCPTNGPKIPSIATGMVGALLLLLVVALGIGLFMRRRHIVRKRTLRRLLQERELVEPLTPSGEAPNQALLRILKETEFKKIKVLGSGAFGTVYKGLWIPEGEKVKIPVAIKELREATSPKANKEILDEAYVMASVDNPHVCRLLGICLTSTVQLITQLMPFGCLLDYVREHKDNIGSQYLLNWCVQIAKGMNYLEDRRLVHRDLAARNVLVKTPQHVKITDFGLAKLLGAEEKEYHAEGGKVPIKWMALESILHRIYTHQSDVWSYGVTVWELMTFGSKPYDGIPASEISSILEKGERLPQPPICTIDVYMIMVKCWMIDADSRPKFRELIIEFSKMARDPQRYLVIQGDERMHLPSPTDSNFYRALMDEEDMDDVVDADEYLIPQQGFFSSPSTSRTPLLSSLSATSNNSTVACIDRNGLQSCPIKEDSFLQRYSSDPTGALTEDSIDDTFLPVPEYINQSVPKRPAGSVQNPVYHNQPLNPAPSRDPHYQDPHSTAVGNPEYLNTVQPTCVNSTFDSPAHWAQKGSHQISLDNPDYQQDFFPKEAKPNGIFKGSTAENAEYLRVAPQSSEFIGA
- studyConditions: a431
API: label(entry) gives YES if the entry's IC50 is strictly smaller than 700 nM; on equality or larger values it gives NO.

// query For CS(=O)(=O)CCNCc1ccc(-c2ccc3ncnc(Nc4ccc(OCc5ccccn5)c(Cl)c4)c3c2)[nH]1 , is the recorded IC50 below the cut-off of 700 nM?
// result YES

---

- testTarget: EGFR (human) (UniProt P00533)
- studyConditions: a431
Quick reference: pIC50 of the listed items.
Please express pIC50 as -log10 of the molar concentration.

These solved cases illustrate the format of a correct answer.
{"columns": ["molecule", "testTarget", "pIC50"],
 "data": [
  ["NC(=O)C1CCN(CC(O)Cn2ccc(-c3ccc4ncnc(Nc5ccc(OCc6cccc(F)c6)c(Cl)c5)c4c3)c2)CC1 (stereo not given)", "EGFR (human) (UniProt P00533)", 6.86],
  ["Fc1cccc(Cn2ncc3cc(Nc4ncnc5ccc(-c6ccn(CC7CN(CCN8CCOCC8)CCO7)c6)cc45)ccc32)c1 (stereo not given)", "EGFR (human) (UniProt P00533)", 5.89],
  ["O[C@@H](CNC1CC1)Cn1ccc(-c2ccc3ncnc(Nc4ccc(OCc5cccc(F)c5)c(Cl)c4)c3c2)c1", "EGFR (human) (UniProt P00533)", 6.15],
  ["O=C(Cn1ccc(-c2ccc3ncnc(Nc4ccc(OCc5cccc(F)c5)c(Cl)c4)c3c2)c1)N1CCCC1", "EGFR (human) (UniProt P00533)", 6.32]
]}

// query What does the data say about its pIC50? Entry: CS(=O)(=O)CCNCc1cn(-c2ccc3ncnc(Nc4ccc(OCc5cccc(F)c5)c(Cl)c4)c3c2)cc1C(F)(F)F
// result 6.08
